Test system: TAB109
Assay: qHTS profiling for inhibitors of Plasmodium falciparum proliferation (AID 504749); also: nearly all actives have a fitted effect of over 60% in size
Details: P. falciparum in erythrocytes, SYBR Green DNA, 72 h; series mostly up to 12.8 µM
Inconclusive results are not listed. Activity calls are given as the source filed them. Calls follow the shape of the dose curve; as a rule, active = well fitted inhibition curve with a large enough effect; inconclusive = small, poorly fitted or top-dose-only effect; inactive = flat fitted curve, though single readings scatter.
Measure: outcome

Some entries whose results are on file:
Molecule | outcome
CC1(C)[C@@H](OC(=O)CCC(=O)O)CC[C@@]2(C)[C@H]1CC[C@@]1(C)[C@H]2C(=O)C=C2[C@H]3C[C@](C)(C(=O)O)CC[C@]3(C)CC[C@@]21C | inactive
NCc1ccccc1CC(=O)N[C@@H]1C(=O)N2C(C(=O)O)=C(CSc3nnnn3CC(=O)O)CS[C@@H]12 | inactive
NS(=O)(=O)c1cc2c(cc1Cl)N[C@@H](CC1CCCC1)NS2(=O)=O | inactive
CC(=O)N[C@@H]1C(O)OC(CO)C(O)C1O (some centres not stated) | inactive
CCC(C)C(=O)OC1CC(O)C=C2C=CC(C)C(CCC(O)CC(O)CC(=O)O)C21 (configuration not stated) | inactive
CO[C@]1(NC(=O)[C@H](C(=O)O)c2ccc(O)cc2)C(=O)N2C(C(=O)O)=C(CSc3nnnn3C)CO[C@H]21 | inactive

Fill in: outcome of CN(C)CCOC(=O)[C@@H](c1ccccc1)C1(O)CCCC1 is ___
inactive

----------
Target: Cytochrome P450 3A4 (Homo sapiens)
Assay: qHTS Assay for Inhibitors and Substrates of Cytochrome P450 3A4 (AID 884); also: nearly all actives have a fitted effect of over 50% in size
Details: recombinant CYP3A4, Luciferin-PPXE luminescence; series mostly up to 57.1 µM
Inconclusive results are not listed. Activity calls are given as the source filed them. Calls come from the whole dose curve; as a rule, active = well fitted inhibition curve with a large enough effect; inconclusive = small, poorly fitted or top-dose-only effect; inactive = no such curve, though single readings can be large or run the other way.
Entry note: the call must match one of active, inactive

Any idea what this test logged for CC1C2CCC3C4CC=C5CC(N(C)C)CC[C@@]5(C)C4CC[C@@]32CN1C (stereo not given in full) ?
inactive

Any idea what this test logged for COc1ccc(/C=C/c2cc(O)cc(O[C@H]3OC(CO)C(O)C(O)C3O)c2)cc1 (stereo not given in full) ?
inactive

Any idea what this test logged for COc1cc(OC)c2c(=O)c(OC)c(-c3ccc(OC)c(OC)c3)oc2c1 ?
active

Any idea what this test logged for O=C(/C=C/c1ccccc1)c1ccc(O[C@H]2OC(CO)C(O)C(O)C2O)cc1O (stereo not given in full) ?
inactive

Any idea what this test logged for O=C(c1cc(C(F)(F)F)cc(C(F)(F)F)c1)N1CCC[C@@]2(CCN(c3ccccn3)C2)C1 ?
active

----------
Target: Rap guanine nucleotide exchange factor 3 (Homo sapiens) (UniProt O95398)
Sequence (O95398 whole entry, looked up): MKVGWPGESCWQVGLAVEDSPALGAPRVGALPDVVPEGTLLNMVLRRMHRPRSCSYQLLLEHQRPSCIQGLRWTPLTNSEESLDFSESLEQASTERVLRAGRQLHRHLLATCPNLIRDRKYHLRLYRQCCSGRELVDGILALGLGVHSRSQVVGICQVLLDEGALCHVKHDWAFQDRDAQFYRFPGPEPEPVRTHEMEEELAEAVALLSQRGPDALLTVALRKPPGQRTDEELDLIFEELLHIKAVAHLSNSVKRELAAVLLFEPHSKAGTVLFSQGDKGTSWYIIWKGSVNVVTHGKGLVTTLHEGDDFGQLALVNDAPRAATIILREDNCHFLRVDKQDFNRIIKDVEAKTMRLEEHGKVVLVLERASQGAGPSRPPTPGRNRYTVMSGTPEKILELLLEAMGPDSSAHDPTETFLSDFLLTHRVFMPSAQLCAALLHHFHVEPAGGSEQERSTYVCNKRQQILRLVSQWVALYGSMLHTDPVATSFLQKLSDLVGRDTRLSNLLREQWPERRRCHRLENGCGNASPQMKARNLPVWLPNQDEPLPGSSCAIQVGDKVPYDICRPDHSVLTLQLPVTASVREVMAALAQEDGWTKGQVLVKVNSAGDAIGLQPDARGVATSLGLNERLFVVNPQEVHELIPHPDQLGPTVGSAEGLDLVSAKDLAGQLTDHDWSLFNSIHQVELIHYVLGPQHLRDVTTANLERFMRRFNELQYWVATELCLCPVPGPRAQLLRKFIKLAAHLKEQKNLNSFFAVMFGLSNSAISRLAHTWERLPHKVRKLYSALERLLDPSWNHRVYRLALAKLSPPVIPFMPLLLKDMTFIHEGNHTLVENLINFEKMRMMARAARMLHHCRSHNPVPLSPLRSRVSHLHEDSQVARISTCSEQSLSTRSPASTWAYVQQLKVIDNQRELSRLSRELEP
Assay: Counterscreen qHTS for antagonist of cAMP-regulated guanine nucleotide exchange factor 3 (EPAC1) (AID 1645888);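 also: fluorescence loss as bound BODIPY-GDP is released from Rap1B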
Conditions: Rap1B-BODIPY-GDP nucleotide exchange, fluorescence; series mostly up to 154 µM
Inconclusive results are not listed. Active and inactive are the calls of the source. Calls follow the shape of the dose curve; as a rule, active = well fitted inhibition curve with a large enough effect; inconclusive = small, poorly fitted or top-dose-only effect; inactive = no such curve, though single readings can be large or run the other way.
Measure: activity change, negative = inhibition

Smiles | Measure | Test value
COC(=O)CSc1nc(C)cc(Oc2ccccc2)n1 | activity change, negative = inhibition | inactive
COc1cc(/C=C(/C#N)c2nc(-c3cc4ccccc4oc3=O)cs2)ccc1O | activity change, negative = inhibition | inactive
Cc1cccc(C(=O)Nc2sc3c(c2C(=O)O)CCCC3)c1 | activity change, negative = inhibition | inactive
Cc1cc(C)n2[nH]c(=O)c(N=Nc3ccc(S(N)(=O)=O)cc3)c2n1 | activity change, negative = inhibition | inactive

----------
System: CP286
Experiment: qHTS profiling for inhibitors of Plasmodium falciparum proliferation (AID 504749); also: nearly all actives have a fitted effect of over 60% in size
Details: P. falciparum in erythrocytes, SYBR Green DNA, 72 h; series mostly up to 12.8 µM
Results filed as inconclusive are left out. The source made the active and inactive calls. Calls come from the whole dose curve; as a rule, active = well fitted inhibition curve with a large enough effect; inconclusive = small, poorly fitted or top-dose-only effect; inactive = flat fitted curve, though single readings scatter. Peptide text beside a SMILES is read from it.
Entry note: the call must match one of active, inactive

Any idea what this test logged for COc1ccc([C@@H]2CC(=O)c3c(O)cc(O[C@H]4O[C@@H](CO[C@H]5O[C@@H](C)[C@@H](O)[C@@H](O)[C@@H]5O)[C@@H](O)[C@@H](O)[C@@H]4O)cc3O2)cc1O ?
inactive

Any idea what this test logged for CC(=O)OC1CCC2C3CCc4cc(O)ccc4C3CCC12C (stereo unspecified) ?
inactive

Any idea what this test logged for CNC[C@H](O)c1ccc(OC(=O)C(C)(C)C)c(OC(=O)C(C)(C)C)c1 ?
inactive

Any idea what this test logged for CC(=O)OCC(=O)[C@@]1(O)CC[C@@H]2[C@H]3CCC4=CC(=O)C=C[C@]4(C)[C@]3(F)[C@@H](O)C[C@@]21C ?
inactive

Any idea what this test logged for Nc1nc2ncc(CNc3ccc(C(=O)NC(CCC(=O)O)C(=O)O)cc3)nc2c(=O)[nH]1 (stereo unspecified) ?
inactive

Any idea what this test logged for COC(=O)C(Cc1ccccc1)NC(=O)C(N)CC(=O)O (stereo not drawn) (H-Asp-Phe-OMe; configuration not given here) ?
inactive

Any idea what this test logged for CNC1C(OC2C(O[C@@H]3C(O)C(O)[C@@H](N=C(N)N)C(O)C3N=C(N)N)OC(C)[C@@]2(O)CO)OC(CO)C(O)C1O (stereo partly specified) ?
inactive

Any idea what this test logged for CC(=O)N[C@@H]1C(O)OC(CO)C(O)C1O (stereo partly specified) ?
inactive

Any idea what this test logged for C[C@@H]1Cc2ccccc2N1NC(=O)c1ccc(Cl)c(S(N)=O)c1 (stereo partly specified) ?
inactive

Any idea what this test logged for NS(=O)(=O)c1cc2c(cc1Cl)N[C@@H](CC1CCCC1)NS2(=O)=O ?
inactive

Any idea what this test logged for COc1cc(N)c(Cl)cc1C(=O)N[C@H]1CCN(CCCOc2ccc(F)cc2)C[C@H]1OC ?
active

Any idea what this test logged for CCOC(=O)C1=CC(OC(CC)CC)C(NC(C)=O)C(N)C1 (stereo unspecified) ?
inactive

Any idea what this test logged for NC(=O)c1cc[n+](CC2=C(C(=O)[O-])N3C(=O)[C@@H](NC(=O)Cc4cccs4)[C@@H]3SC2)cc1 ?
inactive

Any idea what this test logged for CC(C)Oc1ccc2c(=O)cc(-c3ccccc3)oc2c1 ?
inactive

Any idea what this test logged for CC1(C)SC2C(N3C(=O)C(c4ccccc4)NC3(C)C)C(=O)N2C1C(=O)O (stereo unspecified) ?
inactive

Any idea what this test logged for CN(C)CCCOC1C(C(O)CO)OC2OC(C)(C)O[C@@H]21 (stereo partly specified) ?
inactive

Any idea what this test logged for CC(C)(C)NC[C@@H](O)COc1ccccc1C1CCCC1 ?
active

Any idea what this test logged for COc1ccc(C[C@@](C)(N)C(=O)O)cc1OC ?
inactive

Any idea what this test logged for COc1ccc2cc(C(C)CO)ccc2c1 (stereo unspecified) ?
inactive

Any idea what this test logged for CN(C)CCn1nnnc1SCC1=C(C(=O)O)N2C(=O)[C@@H](NC(=O)Cc3csc(N)n3)[C@@H]2SC1 ?
inactive

Any idea what this test logged for CC1=C(C(=O)O)N2C(=O)[C@@H](NC(=O)[C@@H](N)c3ccc(O)cc3)[C@@H]2SC1 ?
inactive

Any idea what this test logged for OCC1OC(n2cnc3c(=S)nc[nH]c32)C(O)C1O (stereo unspecified) ?
inactive

Any idea what this test logged for COc1cc(C2c3cc4c(cc3C(O[C@@H]3OC5COC(c6cccs6)OC5C(O)C3O)C3COC(=O)C23)OCO4)cc(OC)c1O (stereo partly specified) ?
active

Any idea what this test logged for CC[C@H](Cc1c(I)cc(I)c(N)c1I)C(=O)O ?
inactive

Any idea what this test logged for CC[C@H]1NC(=O)c2cc(S(N)(=O)=O)c(Cl)cc2N1 ?
inactive

Any idea what this test logged for NC[C@@H]1O[C@H](O[C@H]2[C@H](O)[C@H](O[C@@H]3O[C@H](CO)[C@@H](O)[C@H](N)[C@@H]3O)[C@@H](N)C[C@H]2N)[C@@H](O)[C@H](O)[C@@H]1O ?
inactive

Any idea what this test logged for CC[C@@]12CCCN3CCc4c(n(c5ccccc45)[C@](O)(C(=O)OC)C1)C32 (stereo partly specified) ?
inactive

Any idea what this test logged for CC(=O)N(C[C@@H](C)C(=O)O)c1c(I)cc(I)c(N)c1I ?
inactive

Any idea what this test logged for COCC(=O)Nc1c(I)c(C(=O)NC[C@@H](O)CO)c(I)c(C(=O)N(C)C[C@@H](O)CO)c1I ?
inactive

Any idea what this test logged for CC=C(/C(=C/C)c1ccc(O)cc1)c1ccc(O)cc1 ?
inactive

Any idea what this test logged for CCC(=O)O[C@@]1(C(=O)SCF)[C@@H](C)C[C@H]2[C@@H]3C[C@@H](F)C4=CC(=O)C=C[C@@]4(C)[C@]3(F)[C@@H](O)C[C@]21C ?
inactive

----------
Target: Rap guanine nucleotide exchange factor 3 (Homo sapiens)
Assay: Confirmatory qHTS for agonist of cAMP-regulated guanine nucleotide exchange factor 3 (EPAC1) (AID 1645881); also: nearly all actives have a fitted effect of over 75% in size;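 as to activation: EPAC1 catalysed release of BODIPY-GDP from Rap1B seen as fluorescence loss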
Details: EPAC1 Rap1B BODIPY-GDP exchange fluorescence; series mostly up to 154 µM
Records with an inconclusive call do not appear. Active and inactive are the calls of the source. The call rests on the fitted dose curve; in most records, active means well fitted activation curve with a large enough effect; inconclusive means small, poorly fitted or top-dose-only effect; inactive means no such curve, though single readings can be large or run the other way.
Entry note: the call must match one of true for active, false for inactive

Any idea what this test logged for O=c1oc2ccccc2nc1/C=C(O)/C=C\c1ccccc1 ?
false

Any idea what this test logged for O=C(CCN1C(=O)/C(=C/c2cccs2)SC1=S)Nc1ccc(C(=O)O)c(O)c1 ?
false

Any idea what this test logged for COc1ccc(-c2cc(C(F)(F)F)nc(SCC(=O)NCCc3ccccc3)n2)cc1OC ?
false

Any idea what this test logged for CCOC(=O)c1ccc(N(C(=O)c2ccccc2)c2ccccc2)cc1 ?
false

Any idea what this test logged for N#CC(=Cc1ccc(-c2ccccc2)cc1)C(=O)c1ccccc1 ?
false

Any idea what this test logged for Cc1ccc(CNS(=O)(=O)c2ccc(-n3cnnn3)c(C)c2)cc1 ?
false

Any idea what this test logged for O=[N+]([O-])c1cc(Cl)ccc1NCCc1ccccn1 ?
false

Any idea what this test logged for COc1ccc(C(=O)Nc2cccc(/C=C(\CCC(=O)O)c3nc4ccccc4s3)c2)cc1 ?
false

Any idea what this test logged for Cc1cc(/C=N/NC(N)=S)c(O)c(/C=N/NC(N)=S)c1 ?
true

Any idea what this test logged for CCc1ccccc1NC(=O)CCC(=O)N1CCN(C(C)=O)CC1 ?
false

Any idea what this test logged for CC(=O)NC(CCS(C)(=O)=O)C(=O)Nc1cccc(C)c1C (stereo not drawn) ?
false

Any idea what this test logged for CC(C)(C)c1ccc(N=C2SCC(=O)N2Cc2cccs2)cc1 ?
false

Any idea what this test logged for COc1ccc2oc(C(=O)CCC(=O)O)c(N)c2c1 ?
false

Any idea what this test logged for COc1cc2cnc(-c3ccccc3)c(C(=O)c3ccc(F)cc3)c2cc1OC ?
false

Any idea what this test logged for Cc1sc(NC(=O)C2=COCCO2)nc1-c1ccc(Cl)cc1 ?
false

Any idea what this test logged for CCC(=O)N1c2nc(C(C)C)nn2C2(CCCCC2)[C@@H]2CCCC[C@@H]21 ?
false

Any idea what this test logged for CCc1ccc2oc(C(=O)Nc3ccccc3OC)cc(=O)c2c1 ?
false

Any idea what this test logged for Cc1ccc(NC(=O)CN2C(=O)N/C(=C/c3ccccc3OCc3cccc(C(=O)O)c3)C2=O)cc1 ?
false

Any idea what this test logged for CC(=O)Nc1ccc(C=NNc2ccc(S(=O)(=O)Nc3ccccc3C(=O)O)cc2[N+](=O)[O-])cc1 ?
false

Any idea what this test logged for Cc1ccc(-c2cn3c(n2)sc2cc(C(=O)NCCC4=CCCCC4)ccc23)c(C)c1 ?
false

Any idea what this test logged for Cc1ccc(S(=O)(=O)N2[C@@H](c3cccc(Cl)c3)C(C(=O)O)=CC[C@H]2c2ccc(C(C)C)cc2)cc1 ?
false

Any idea what this test logged for Cc1ccc(C2CC(=O)Oc3cc(C)cc(C)c32)cc1 (stereo not drawn) ?
false

Any idea what this test logged for Cc1ccc(NC(=O)COC(=O)Cn2c(C)csc2=O)c([N+](=O)[O-])c1 ?
false

Any idea what this test logged for O=C(/C=C/c1ccc2c(c1)OCO2)Nc1cc(S(=O)(=O)N2CCOCC2)ccc1N1CCOCC1 ?
false

Any idea what this test logged for Cc1nc2c(C(=O)NCCC(C)C)c[nH]n2c(=O)c1Cl ?
false

Any idea what this test logged for CCN(CC)c1nc(C#N)cc(-c2ccc(OC)cc2)n1 ?
false

Any idea what this test logged for Nc1c(C(=O)Nc2ccc3c(c2)OCCO3)nnn1Cc1cccc(Br)c1 ?
false

Any idea what this test logged for COCCNC(=O)CSc1nc2cc3c(cc2c(=O)n1CCCCCC(=O)NCc1ccc(OC)cc1)OCO3 ?
false

Any idea what this test logged for Cc1ccc(S(=O)(=O)/N=C2/NC(=O)/C(=C/c3ccccc3)S2)cc1 ?
false

Any idea what this test logged for O=C(Cc1ccccc1)O/N=C1\CCCc2ccccc21 ?
false

Any idea what this test logged for Cc1nn(-c2ccccc2)c(N2CCCC2)c1/C=C1\N=C(c2ccc(OC(C)C)cc2)OC1=O ?
false

Any idea what this test logged for O=C(O)CCCCCN1C(=O)/C(=C/c2cn(-c3ccccc3)nc2-c2cccs2)SC1=S ?
true

Any idea what this test logged for Cn1c(=O)c2nc(SCC(=O)Nc3ccc(Cl)c(Cl)c3)n(C)c2n(C)c1=O ?
false
